# tested_on: TYK2 JH2 pseudokinase (human) (UniProt P29597)
# Sequence (P29597 whole entry, looked up): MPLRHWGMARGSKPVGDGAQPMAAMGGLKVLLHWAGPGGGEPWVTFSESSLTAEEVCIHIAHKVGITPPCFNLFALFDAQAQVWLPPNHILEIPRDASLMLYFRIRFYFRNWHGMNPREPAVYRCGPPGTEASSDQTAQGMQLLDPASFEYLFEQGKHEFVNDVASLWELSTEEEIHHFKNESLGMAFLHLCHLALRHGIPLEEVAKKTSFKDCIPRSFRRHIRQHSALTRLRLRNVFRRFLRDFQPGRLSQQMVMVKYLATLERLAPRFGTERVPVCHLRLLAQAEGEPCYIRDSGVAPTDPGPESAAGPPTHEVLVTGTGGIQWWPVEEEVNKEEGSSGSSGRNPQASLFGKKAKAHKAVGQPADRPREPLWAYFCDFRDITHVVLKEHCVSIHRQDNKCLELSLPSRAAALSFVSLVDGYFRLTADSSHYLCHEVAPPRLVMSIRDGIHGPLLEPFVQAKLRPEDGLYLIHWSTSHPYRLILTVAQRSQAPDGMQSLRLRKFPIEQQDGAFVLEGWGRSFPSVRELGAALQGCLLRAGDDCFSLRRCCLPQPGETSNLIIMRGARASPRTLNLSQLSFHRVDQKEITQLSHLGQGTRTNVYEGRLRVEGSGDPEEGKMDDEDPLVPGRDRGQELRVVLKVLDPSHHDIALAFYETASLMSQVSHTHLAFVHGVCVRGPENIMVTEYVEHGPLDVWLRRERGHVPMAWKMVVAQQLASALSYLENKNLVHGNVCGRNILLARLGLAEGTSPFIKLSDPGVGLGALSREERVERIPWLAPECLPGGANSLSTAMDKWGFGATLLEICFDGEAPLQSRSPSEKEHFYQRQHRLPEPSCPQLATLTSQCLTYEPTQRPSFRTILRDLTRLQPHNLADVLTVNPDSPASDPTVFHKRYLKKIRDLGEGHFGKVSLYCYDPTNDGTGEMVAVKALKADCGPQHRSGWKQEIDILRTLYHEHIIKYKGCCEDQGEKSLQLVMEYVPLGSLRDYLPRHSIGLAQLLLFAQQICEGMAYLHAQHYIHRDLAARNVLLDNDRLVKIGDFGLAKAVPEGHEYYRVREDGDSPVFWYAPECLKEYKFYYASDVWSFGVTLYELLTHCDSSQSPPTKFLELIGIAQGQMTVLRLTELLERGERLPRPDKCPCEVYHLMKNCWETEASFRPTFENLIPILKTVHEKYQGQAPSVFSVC
# experiment: KINOMEscan competition binding
# assay_setup: compound 10.0 µM
measurement_type: kinase still bound, per cent of control (%)
Numeric only. Scale: %

The reported value for COc1cc2ncn(-c3cc(OCc4ccccc4C(F)(F)F)c(C(N)=O)s3)c2cc1OC in terms of kinase still bound, per cent of control is 97

---

Quick list: kinase still bound, per cent of control per entry.
# tested_on: SRC (human) (UniProt P12931)
# Sequence (P12931 whole entry, looked up): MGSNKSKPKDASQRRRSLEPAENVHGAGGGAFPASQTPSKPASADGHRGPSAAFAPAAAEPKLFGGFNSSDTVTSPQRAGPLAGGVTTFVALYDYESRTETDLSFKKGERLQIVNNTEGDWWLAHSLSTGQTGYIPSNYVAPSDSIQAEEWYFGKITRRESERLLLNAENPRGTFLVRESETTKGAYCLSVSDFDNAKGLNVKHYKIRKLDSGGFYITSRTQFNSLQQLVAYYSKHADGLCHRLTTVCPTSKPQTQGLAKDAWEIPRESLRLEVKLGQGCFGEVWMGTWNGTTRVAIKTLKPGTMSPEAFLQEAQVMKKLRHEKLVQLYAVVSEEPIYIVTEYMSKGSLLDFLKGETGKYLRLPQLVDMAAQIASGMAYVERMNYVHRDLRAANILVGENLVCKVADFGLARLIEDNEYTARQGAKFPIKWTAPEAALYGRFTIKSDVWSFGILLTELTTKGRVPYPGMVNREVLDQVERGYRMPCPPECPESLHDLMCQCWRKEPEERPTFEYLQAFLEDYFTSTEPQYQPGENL
# experiment: KINOMEscan competition binding
# assay_setup: compound 10.0 µM
Numeric only. Scale: %

1) Cc1n[nH]c2ccc(-c3cncc(OC[C@@H](N)Cc4c[nH]c5ccccc45)c3)cc12 : 100
2) O=C(Nc1cccc(Nc2ncc(Br)c(NCCc3cnc[nH]3)n2)c1)N1CCCC1 : 4
3) C[C@@H](Oc1cc(-c2cnn(C3CCNCC3)c2)cnc1N)c1c(Cl)ccc(F)c1Cl : 0.55
4) NC(=O)Nc1cc(-c2cccc(F)c2)sc1C(=O)N[C@@H]1CCCNC1 : 0.05

Okay, next one:
Record CS(=O)(=O)N1CCN(Cc2cc3nc(-c4cccc5[nH]ncc45)nc(N4CCOCC4)c3s2)CC1 ; system SRC (human) (UniProt P12931); kinase still bound, per cent of control = 100

---

# tested_on: EPHA2 (human) (UniProt P29317)
# Sequence (P29317 whole entry, looked up): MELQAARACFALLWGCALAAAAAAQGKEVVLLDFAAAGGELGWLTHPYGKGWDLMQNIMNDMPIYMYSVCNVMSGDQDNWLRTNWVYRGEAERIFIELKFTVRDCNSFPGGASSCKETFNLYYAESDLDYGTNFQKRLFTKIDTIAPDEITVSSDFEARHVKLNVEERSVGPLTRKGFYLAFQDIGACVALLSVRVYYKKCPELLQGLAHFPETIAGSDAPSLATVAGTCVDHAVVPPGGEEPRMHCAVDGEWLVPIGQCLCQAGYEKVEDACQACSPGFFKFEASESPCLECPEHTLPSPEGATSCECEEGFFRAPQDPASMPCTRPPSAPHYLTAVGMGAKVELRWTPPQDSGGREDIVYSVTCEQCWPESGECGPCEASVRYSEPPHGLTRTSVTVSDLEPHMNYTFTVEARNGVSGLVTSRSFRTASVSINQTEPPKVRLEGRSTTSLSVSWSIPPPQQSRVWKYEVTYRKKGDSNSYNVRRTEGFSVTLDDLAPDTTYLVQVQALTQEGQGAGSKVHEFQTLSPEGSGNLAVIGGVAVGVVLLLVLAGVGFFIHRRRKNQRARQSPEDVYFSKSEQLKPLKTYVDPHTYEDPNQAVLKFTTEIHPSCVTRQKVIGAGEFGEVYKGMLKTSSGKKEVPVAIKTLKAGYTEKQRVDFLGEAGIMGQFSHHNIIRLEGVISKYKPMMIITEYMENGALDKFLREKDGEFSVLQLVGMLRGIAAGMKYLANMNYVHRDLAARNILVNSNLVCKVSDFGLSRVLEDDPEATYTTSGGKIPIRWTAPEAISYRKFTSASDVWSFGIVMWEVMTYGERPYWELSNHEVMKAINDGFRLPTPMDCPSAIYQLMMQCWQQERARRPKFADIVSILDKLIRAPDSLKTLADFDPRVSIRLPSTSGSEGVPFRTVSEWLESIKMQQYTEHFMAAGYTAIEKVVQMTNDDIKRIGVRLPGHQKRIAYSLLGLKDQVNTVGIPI
# experiment: KINOMEscan competition binding
# assay_setup: compound 10.0 µM
measurement_type: kinase still bound, per cent of control (%)
Numeric only. Scale: %

Would you please look over these solved cases?
1. COc1cc(N2CCN(C)CC2)ccc1Nc1ncc2c(n1)N(C)c1ccccc1C(=O)N2C : 100
2. COc1cc2ncnc(-n3nc(-c4ccccn4)nc3N)c2cc1OC : 27
3. CCN(CC)CCCCNc1ncc2cc(-c3cc(OC)cc(OC)c3)c(NC(=O)NC(C)(C)C)nc2n1 : 100
4. CN(C)C/C=C/C(=O)Nc1ccc(C(=O)Nc2cccc(Nc3nccc(-c4cccnc4)n3)c2)cc1 : 97

Okay, next one:
The reported value for CNC(=O)c1ccc(Nc2cc(Nc3ccccc3S(=O)(=O)C(C)C)c3cc[nH]c3n2)nc1 in terms of kinase still bound, per cent of control is 100

---

# tested_on: CAMKK2 (human)
# experiment: KINOMEscan competition binding
# assay_setup: compound 10.0 µM
measurement_type: kinase still bound, per cent of control

Would you please look over these solved cases?
1) CN(C)C/C=C/C(=O)Nc1ccc(C(=O)Nc2cccc(Nc3nccc(-c4cccnc4)n3)c2)cc1 : 16%
2) COc1cc(N2CCN(C)CC2)ccc1Nc1ncc2c(n1)N(C)c1ccccc1C(=O)N2C : 15%
3) O=C1NC(=O)/C(=C/c2ccc3nccc(-c4ccncc4)c3c2)S1 : 2%
4) NC(=O)Nc1cc(-c2cccc(F)c2)sc1C(=O)N[C@@H]1CCCNC1 : 2.9%
5) CCN(CC)CCCCNc1ncc2c(n1)N(C)C(=O)N(c1c(Cl)c(OC)cc(OC)c1Cl)C2 : 100%

Record COc1cc2ncn(-c3cc(OCc4ccccc4C(F)(F)F)c(C(N)=O)s3)c2cc1OC ; system CAMKK2 (human); kinase still bound, per cent of control = 44%

Record COc1cc2ncnc(-n3nc(-c4ccccn4)nc3N)c2cc1OC ; system CAMKK2 (human); kinase still bound, per cent of control = 9.1%

Record COc1ccc(N(C(=O)Oc2c(C)cccc2C)c2ccnc(Nc3ccc(N4CCN(C)CC4)cc3)n2)c(OC)c1 ; system CAMKK2 (human); kinase still bound, per cent of control = 56%

Record CCN(CC)CCCCNc1ncc2cc(-c3cc(OC)cc(OC)c3)c(NC(=O)NC(C)(C)C)nc2n1 ; system CAMKK2 (human); kinase still bound, per cent of control = 100%

Record COc1cc(C(=O)N2CCC(N3CCN(C)CC3)CC2)ccc1Nc1ncc2c(n1)N(C)c1ccccc1C(=O)N2C ; system CAMKK2 (human); kinase still bound, per cent of control = 31%

Record CNC(=O)c1cc(Oc2ccc(NC(=O)Nc3ccc(Cl)c(C(F)(F)F)c3)cc2)ccn1 ; system CAMKK2 (human); kinase still bound, per cent of control = 72%
